test.target: T1, Myo5, Q04439
T1 sequence (Q04439 1072-1160, looked up): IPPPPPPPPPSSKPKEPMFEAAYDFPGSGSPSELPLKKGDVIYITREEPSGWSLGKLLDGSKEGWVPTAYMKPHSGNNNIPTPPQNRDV
experiment.description: SPOT array
assay.setup: median of control spots 471
observation.type: SPOT intensity
When you answer, write just the number.

# binder, readout.number
records = [
    ("VPPVPLPFGIPPFPM", 207),
    ("SGVRLPAPPPPPRRG", 0),
    ("LRWRHKFFLPAIAAI", 0),
    ("KKAPPPVVKPKPRNF", 0),
    ("NSMRPPLLIPAATTK", 65),
]

Now consider the entry below.
Req: Value lookup for SPOT intensity; key = VNIPSPSSSPPPIPK
Resp: 529
